- study system: BCL6 (Homo sapiens (Human), UniProt P41182)
- procedure summary: Immunofluorescence high content imaging of BCL6 degradation in T47D cells
- Format: cell-based
- experimental parameters: T47D
quantity measured: Dmax

• CONC(=O)COc1cc2cc(Nc3cc(N4CCN(C(C)(C)C5CCN(c6ccc7c(c6)C(=O)N(C6CCC(=O)NC6=O)C7=O)CC5)CC4)ncc3Cl)ccc2n(C)c1=O (centres unmarked) [compound 265] = 50 to 70%
• CN1CC[C@H](Oc2cc3cc(Nc4nc(N5CCC(CN6CCN(c7ccc8c(c7)C(=O)N(C7CCC(=O)NC7=O)C8=O)CC6)CC5)ncc4Cl)ccc3n(C)c2=O)C1=O (some centres unmarked) [compound 259] = < 50%
• CNC(=O)COc1cc2cc(Nc3nc(N4CCN(CC5CC6(CCN(c7ccc8c(c7)C(=O)N(C7CCC(=O)NC7=O)C8=O)CC6)C5)CC4)ncc3Cl)ccc2n(C(C)C)c1=O (centres unmarked) [compound 516] = 50 to 70%

Return reported Dmax; argument: CC(=O)[C@@H](C)Oc1cc2cc(Nc3nc(N4CCC(CN5CCN(c6ccc7c(c6)C(=O)N([C@@H]6CCC(=O)NC6=O)C7=O)CC5)CC4)ncc3Cl)ccc2n(C)c1=O [compound 218]
< 50%

Return reported Dmax; argument: CNC(=O)COc1cc2cc(Nc3nc(N4CCN(C(C)(C)C5CCN(c6cccc7c6C(=O)N(C6CCC(=O)NC6=O)C7=O)CC5)CC4)ncc3Cl)ccc2n(C(C)C)c1=O (centres unmarked) [compound 307]
50 to 70%

###

- study system: BCL6 (Homo sapiens (Human))
- procedure summary: Immunofluorescence high content imaging of BCL6 degradation in T47D cells
- Assay type: cell-based
- experimental parameters: T47D
- Experimental: Immunofluorescence Protocol for High Cotent Imaging of BCL6 T47D cells were seeded in 100 μl volume of RPMI1640-10% FBS in a 96-well black/clear bottom plates for adherent lines (Corning #3904). Day 1. T47D breast cancer epithelial cells were seeded at a density so that confluence is ˜70-90% at endpoint. Cells were seeded at 7K/0.1 ml/well the morning prior to the addition of exemplary bifunctional degradation compounds. Day 2. […] Plates were equilibrated to room temperature prior to reading. […]
quantity measured: Dmax

Return reported Dmax; argument: CNC(=O)COc1cc2cc(Nc3nc(N4CCO[C@@H](COc5ccc6c(c5)C(=O)N(C5CCC(=O)NC5=O)C6=O)C4)ncc3Cl)ccc2n(C)c1=O (some centres unmarked)
< 50%

Return reported Dmax; argument: CNC(=O)COc1cc2cc(Nc3cc(N4CCC(CN5CCN(c6ccc7c(c6)C(=O)N(C6CCC(=O)NC6=O)C7=O)CC5)CC4)ncc3Cl)ccc2n(C)c1=O (centres unmarked)
50 to 70%

Return reported Dmax; argument: CCn1c(=O)c(OCC(=O)NC)cc2cc(Nc3nc(N4CCC(CN5CC6(C5)CN(c5ccc7c(c5)C(=O)N(C5CCC(=O)NC5=O)C7=O)C6)CC4)ncc3Cl)ccc21 (centres unmarked)
50 to 70%

Return reported Dmax; argument: CNC(=O)COc1cc2cc(Nc3nc(N4CCN(CC5CC6(C5)CN(c5ccc7c(c5)C(=O)N(C5CCC(=O)NC5=O)C7=O)C6)CC4)ncc3Cl)ccc2n(C(C)C)c1=O (centres unmarked)
50 to 70%

Return reported Dmax; argument: CC(=O)COc1cc2cc(Nc3nc(N4CC(OC5CCN(c6ccc7c(c6)C(=O)N(C6CCC(=O)NC6=O)C7=O)CC5)C4)ncc3Cl)ccc2n(C)c1=O (centres unmarked)
< 50%

Return reported Dmax; argument: CNC(=O)COc1cc2cc(Nc3nc(N4CCC(CN5CCC6(CC5)CCN(c5ccc7c(c5)C(=O)N(C5CCC(=O)NC5=O)C7=O)CC6)CC4)ncc3Cl)ccc2n(C(C)C)c1=O (centres unmarked)
50 to 70%

###

Catalogue of compounds with associated Dmax
- study system: BCL6 (Homo sapiens (Human), UniProt P41182)
- procedure summary: Immunofluorescence high content imaging of BCL6 degradation in T47D cells
- Type: cell-based
- experimental parameters: T47D

• CNC(=O)COc1cc2cc(Nc3nc(N4CCN(CC5CCN(c6cccc7c6C(=O)N(C6CCC(=O)NC6=O)C7=O)CC5)CC4)ncc3Cl)ccc2n(CCC2COC2)c1=O (centres unmarked) = ≥ 70%
• CNC(=O)COc1cc2cc(Nc3nc(N4CCN(CC5CCN(c6cnc(C(=O)NC7CCC(=O)NC7=O)nc6)CC5)CC4)ncc3Cl)ccc2n(C)c1=O (centres unmarked) = < 50%
• CNC(=O)COc1cc2cc(Nc3nc(N4CCC(O[C@@H]5C[C@@H](COc6ccc7c(c6)C(=O)N(C6CCC(=O)NC6=O)C7=O)N(C)C5)CC4)ncc3Cl)ccc2n(C(C)C)c1=O (some centres unmarked) = < 50%
• CNC(=O)COc1cc2cc(Nc3nc(N4CCC(CN5CCC(c6coc(C(=O)NC7CCC(=O)NC7=O)c6)CC5)CC4)ncc3Cl)ccc2n(C)c1=O (centres unmarked) = < 50%

Return reported Dmax; argument: CNC(=O)COc1cc2cc(Nc3nc(N4CCC(CN5CCC(c6ccc7c(c6)C(=O)N(C6CCC(=O)NC6=O)C7=O)CC5)CC4)ncc3Cl)ccc2n(C)c1=O (centres unmarked)
≥ 70%

###

- study system: BCL6 (Homo sapiens (Human), UniProt P41182)
- procedure summary: Immunofluorescence high content imaging of BCL6 degradation in T47D cells
- Assay type: cell-based
- experimental parameters: T47D
quantity measured: Dmax

// below: answered compounds
• CNC(=O)COc1cc2cc(Nc3nc(N4CCC(O[C@H]5C[C@@H](Oc6cccc7c6C(=O)N(C6CCC(=O)NC6=O)C7=O)CN(C)C5)CC4)ncc3Cl)ccc2n(C(C)C)c1=O (some centres unmarked) = < 50%
• CNC(=O)COc1cc2cc(Nc3nc(N4CCN(CC5CCN(c6ccc(F)c(C(=O)NC7CCC(=O)NC7=O)c6)CC5)CC4)ncc3Cl)ccc2n(C)c1=O (centres unmarked) = < 50%
• CNC(=O)COc1cc2cc(Nc3nc(N4CCN(CC5CCC6(CC5)CN(c5ccc7c(c5)C(=O)N(C5CCC(=O)NC5=O)C7=O)C6)CC4)ncc3Cl)ccc2n(C(C)C)c1=O (centres unmarked) = 50 to 70%
• CNC(=O)COc1cc2cc(Nc3cc(N4CCN(C(C)(C)C5CCN(c6ccc7c(c6)C(=O)N(C6CCC(=O)NC6=O)C7=O)CC5)CC4)ncc3Cl)ccc2n(C(C)C)c1=O (centres unmarked) = < 50%

Return reported Dmax; argument: CNC(=O)COc1cc2cc(Nc3nc(N4CCC(N5CCC6(CCN(c7ccc8c(c7)C(=O)N(C7CCC(=O)NC7=O)C8=O)CC6)C5)CC4)ncc3Cl)ccc2n(C(C)C)c1=O (centres unmarked)
50 to 70%

###

Catalogue of compounds with associated IC50
- study system: BCL6 (Homo sapiens (Human))
- procedure summary: Immunofluorescence high content imaging of BCL6 degradation in T47D cells
- Assay type: cell-based

// below: answered compounds
* CNC(=O)COc1cc2cc(Nc3nc(N4CCN(CC5CCN(c6cccc7c6C(=O)N(C6CCC(=O)NC6=O)C7=O)CC5)CC4)ncc3Cl)ccc2n(C)c1=O (stereo not shown) | < 10 nM
* CCn1c(=O)c(OCC(=O)NC)cc2cc(Nc3nc(N4CCC(OC5CCN(c6cccc7c6C(=O)N(C6CCC(=O)NC6=O)C7=O)CC5)CC4)ncc3Cl)ccc21 (stereo not shown) | < 10 nM
* CNC(=O)COc1cc2cc(Nc3nc(N4CCN(C(C)(C)CN5CCN(c6ccc7c(c6)C(=O)N(C6CCC(=O)NC6=O)C7=O)CC5)CC4)ncc3Cl)ccc2n(C)c1=O (stereo not shown) | 10 to 50 nM

Return reported IC50; argument: Cn1c(=O)c(-n2ccnc2)cc2cc(Nc3nc(N4CCC(CN5CCN(c6ccc7c(c6)C(=O)N(C6CCC(=O)NC6=O)C7=O)CC5)CC4)ncc3Cl)ccc21 (stereo not shown)
≥ 100 nM

Return reported IC50; argument: CCNC(=O)COc1cc2cc(Nc3nc(N4CCC(CN5CCN(c6ccc7c(c6)C(=O)N(C6CCC(=O)NC6=O)C7=O)CC5)CC4)ncc3Cl)ccc2n(C)c1=O (stereo not shown)
50 to 100 nM

Return reported IC50; argument: CNC(=O)COc1cc2cc(Nc3nc(N4CCN(CCCN5CCN(c6ccc7c(c6)C(=O)N(C6CCC(=O)NC6=O)C7=O)CC5)CC4)ncc3Cl)ccc2n(C)c1=O (stereo not shown)
10 to 50 nM

###

- study system: UniProtKB P41182
- procedure summary: Immunofluorescence high content imaging of BCL6 degradation in T47D cells
- Type: cell-based
- experimental parameters: class symbols A-D, read-out: EC50 (nM)*
Catalogue of compounds with associated DC50

// below: answered compounds
• CNC(=O)COc1cc2cc(Nc3nc(N4CCC(Cc5cn(CCOCCOCC(=O)N[C@H](C(=O)N6C[C@H](O)C[C@H]6C(=O)N[C@@H](C)c6ccc(-c7scnc7C)cc6)C(C)(C)C)nn5)CC4)ncc3Cl)ccc2n(C)c1=O [compound 133] = > 100 nM
• CC(=O)COc1cc2cc(Nc3nc(N4CCC(CN5CC6(C5)CN(c5ccc7c(c5)C(=O)N(C5CCC(=O)NC5=O)C7=O)C6)CC4)ncc3Cl)ccc2n(C)c1=O (stereo not drawn) [compound 165] = 10 to 50 nM

Shift focus to the following entry.
Return reported DC50; argument: CC(=O)COc1cc2cc(Nc3nc(N4CCN(C5CCN(CCCOc6ccc7c(c6)CN(C6CCC(=O)NC6=O)C7=O)C5)CC4)ncc3Cl)ccc2n(C)c1=O (stereo not drawn) [compound 158]
10 to 50 nM

Taken from patent US12310975B2.
